# TARGET ENTITY: human TLR7 (Homo sapiens, UniProt Q9NYK1)
# TEST SUMMARY: HEK reporter assay, HEK293 reporter cells expressing human TLR7
# RUN PARAMETERS: HEK293 NFKB reporter cells expressing human TLR7; read-out: HEK293 hTLR7 EC50
Recorded EC50 for the following compounds

Consider the reported EC50 for these compounds:
{"columns": ["COMPOUND", "EC50"],
 "data": [
  ["CCCN(CCCNC(=O)OC(C)(C)C)C(=O)C1=Cc2ccc(C(=O)Nc3cccc(COCCOCCNC(=O)OC(C)(C)C)c3)cc2N=C(N)C1 [8AmBza-8]", "> 9 µM"],
  ["CCCN(CCC(F)(F)F)C(=O)C1=Cc2ccc(C(=O)Nc3ccccc3)cc2N=C(N)C1 [8AmBza-14]", "> 9 µM"],
  ["CCCN(OCC)C(=O)C1=Cc2ccc(C(=O)Nc3ccccc3)cc2N=C(N)C1 [8AmBza-15]", "4.86 µM"]
]}

Now, please, on to the next compound.
Fill blank: measured EC50 of the compound CCCN(CCCNC(=O)OC(C)(C)C)C(=O)C1=Cc2ccc(C(=O)Nc3ccccc3)cc2N=C(N)C1 [8AmBza-9] is ____. > 9 µM

---

Recorded EC50 for the following compounds
# TARGET ENTITY: human TLR7 (Homo sapiens, UniProt Q9NYK1)
# Sequence (Q9NYK1 27-1049): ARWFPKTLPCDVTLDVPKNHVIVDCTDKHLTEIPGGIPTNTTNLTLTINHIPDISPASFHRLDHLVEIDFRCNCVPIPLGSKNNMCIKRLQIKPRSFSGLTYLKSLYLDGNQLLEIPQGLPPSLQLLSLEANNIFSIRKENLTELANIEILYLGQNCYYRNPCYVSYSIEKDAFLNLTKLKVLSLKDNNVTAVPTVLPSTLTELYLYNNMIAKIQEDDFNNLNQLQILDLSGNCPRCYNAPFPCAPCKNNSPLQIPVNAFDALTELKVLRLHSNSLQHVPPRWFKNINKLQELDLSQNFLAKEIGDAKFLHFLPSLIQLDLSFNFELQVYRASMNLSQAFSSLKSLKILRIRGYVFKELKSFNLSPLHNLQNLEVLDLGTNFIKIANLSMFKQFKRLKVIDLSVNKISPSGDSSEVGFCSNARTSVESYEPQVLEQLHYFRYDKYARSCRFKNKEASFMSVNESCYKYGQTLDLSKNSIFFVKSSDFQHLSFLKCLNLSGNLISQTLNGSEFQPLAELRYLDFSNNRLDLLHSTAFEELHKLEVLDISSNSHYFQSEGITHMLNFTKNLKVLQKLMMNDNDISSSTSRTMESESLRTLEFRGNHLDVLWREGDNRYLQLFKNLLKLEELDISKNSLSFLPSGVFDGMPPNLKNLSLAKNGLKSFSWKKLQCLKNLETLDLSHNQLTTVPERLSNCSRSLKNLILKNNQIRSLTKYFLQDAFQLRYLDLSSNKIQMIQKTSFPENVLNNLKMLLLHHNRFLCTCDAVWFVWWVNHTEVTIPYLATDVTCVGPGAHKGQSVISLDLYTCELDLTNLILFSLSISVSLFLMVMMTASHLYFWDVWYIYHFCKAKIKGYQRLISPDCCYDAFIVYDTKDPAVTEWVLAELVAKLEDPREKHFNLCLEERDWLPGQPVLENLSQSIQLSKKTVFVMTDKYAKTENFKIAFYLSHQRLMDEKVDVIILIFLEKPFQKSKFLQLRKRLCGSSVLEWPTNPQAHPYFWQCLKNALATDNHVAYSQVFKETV
# TEST SUMMARY: HEK reporter assay, HEK293 reporter cells expressing human TLR7
# RUN PARAMETERS: HEK293 NFKB reporter cells expressing human TLR7; read-out: HEK293 hTLR7 EC50

Consider the reported EC50 for these compounds:
{"columns": ["SMILES RECORD", "EC50"],
 "data": [
  ["CCCN(CCC)C(=O)C1=Cc2ccc(C(=O)Nc3cncc(CNC(=O)CNC(=O)OC(C)(C)C)c3)cc2N=C(NC(=O)OC(C)(C)C)C1", "> 9 µM"],
  ["CCCN(CCC)C(=O)C1=Cc2ccc(C(=O)Nc3cnc4c(c3)CN(C(=O)OC(C)(C)C)CC4)cc2N=C(NC(=O)OC(C)(C)C)C1", "8.13 µM"]
]}

Now, please, on to the next compound.
Fill blank: measured EC50 of the compound `CCCN(CCC)C(=O)C1=Cc2ccc(C(=O)Nc3cncc(CNC(=O)CN)c3)cc2N=C(N)C1` is ____. > 9 µM

---

# TARGET ENTITY: human TLR8 (Homo sapiens)
# Sequence (Q9NR97 27-1041): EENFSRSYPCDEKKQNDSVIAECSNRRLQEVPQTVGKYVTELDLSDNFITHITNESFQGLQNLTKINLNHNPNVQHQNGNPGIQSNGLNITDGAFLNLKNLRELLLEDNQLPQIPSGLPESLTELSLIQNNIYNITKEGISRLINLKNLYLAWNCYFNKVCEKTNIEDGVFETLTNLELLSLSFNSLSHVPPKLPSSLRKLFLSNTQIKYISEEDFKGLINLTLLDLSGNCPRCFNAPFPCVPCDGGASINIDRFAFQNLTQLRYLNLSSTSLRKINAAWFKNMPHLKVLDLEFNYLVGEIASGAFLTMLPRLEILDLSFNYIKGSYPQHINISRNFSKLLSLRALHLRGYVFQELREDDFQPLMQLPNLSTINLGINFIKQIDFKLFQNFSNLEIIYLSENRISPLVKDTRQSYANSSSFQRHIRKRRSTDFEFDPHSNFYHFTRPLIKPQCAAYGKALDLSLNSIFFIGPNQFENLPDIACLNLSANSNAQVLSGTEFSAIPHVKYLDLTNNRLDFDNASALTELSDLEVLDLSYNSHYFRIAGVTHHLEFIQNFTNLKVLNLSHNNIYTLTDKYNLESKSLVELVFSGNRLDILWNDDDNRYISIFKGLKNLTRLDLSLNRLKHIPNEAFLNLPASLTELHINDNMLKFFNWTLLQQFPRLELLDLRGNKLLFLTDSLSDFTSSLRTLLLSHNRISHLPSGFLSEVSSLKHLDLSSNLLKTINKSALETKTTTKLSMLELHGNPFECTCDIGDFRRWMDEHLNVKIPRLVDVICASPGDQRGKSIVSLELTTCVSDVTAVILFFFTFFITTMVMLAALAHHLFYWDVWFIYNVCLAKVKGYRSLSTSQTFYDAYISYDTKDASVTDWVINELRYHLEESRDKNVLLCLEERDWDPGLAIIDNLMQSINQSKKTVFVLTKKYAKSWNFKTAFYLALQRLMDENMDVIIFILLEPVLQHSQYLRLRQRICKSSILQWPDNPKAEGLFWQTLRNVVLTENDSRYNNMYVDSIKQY
# TEST SUMMARY: HEK reporter assay, HEK293 reporter cells expressing human TLR8
# RUN PARAMETERS: HEK293 NFKB reporter cells expressing human TLR8; read-out: HEK293 hTLR8 EC50
pEC50: −log10 of the molar value.
REPORTED ENDPOINT: pEC50

Consider the reported pEC50 for these compounds:
{"columns": ["COMPOUND", "pEC50"],
 "data": [
  ["CCCN(Cc1ccc(CNC(=O)OC(C)(C)C)cc1)C(=O)C1=Cc2ccc(C(=O)Nc3ccccc3)cc2N=C(N)C1 [8AmBza-17]", 6.11],
  ["CCCN(CCCNC(=O)OC(C)(C)C)C(=O)C1=Cc2ccc(C(=O)Nc3cnc(NCCNC(=O)OC(C)(C)C)nc3)cc2N=C(N)C1 [8AmBza-7]", 5.75],
  ["CCCN(CCC(F)(F)F)C(=O)C1=Cc2ccc(C(=O)Nc3ccccc3)cc2N=C(N)C1 [8AmBza-14]", 6.61],
  ["CCCN(CCCNC(=O)OC(C)(C)C)C(=O)C1=Cc2ccc(C(=O)Nc3ccccc3)cc2N=C(N)C1 [8AmBza-9]", 6.90],
  ["CCCN(Cc1ccc(CN)cc1)C(=O)C1=Cc2ccc(C(=O)Nc3ccccc3)cc2N=C(N)C1 [8AmBza-16]", 7.11]
]}

P: CCCN(CCCNC(=O)OC(C)(C)C)C(=O)C1=Cc2ccc(C(=O)Nc3cccc(COCCOCCNC(=O)OC(C)(C)C)c3)cc2N=C(N)C1 [8AmBza-8]
Q: CCCN(CCC)C(=O)C1=Cc2ccc(C(=O)Nc3cnc4c(c3)CN(C(=O)OC(C)(C)C)CC4)cc2N=C(NC(=O)OC(C)(C)C)C1 [8AmBza-20]
R: CCCN(CCC)C(=O)C1=Cc2ccc(C(=O)Nc3cnc4c(c3)CNCC4)cc2N=C(N)C1 [8AmBza-19]
S: CCCN(OCC)C(=O)C1=Cc2ccc(C(=O)Nc3ccccc3)cc2N=C(N)C1 [8AmBza-15]
List items by pEC50 in falling order. To answer, arrange all of the labels according to the requested order. S, P, R, Q
